# tested_system: D2 receptor (Rattus norvegicus, UniProt P61169)
# Construct: 15μg/mL of striatal homogenate was incubated in triplicate; from tissue; host or cells: rat striatum homogenate
# Sequence (P61169 whole entry): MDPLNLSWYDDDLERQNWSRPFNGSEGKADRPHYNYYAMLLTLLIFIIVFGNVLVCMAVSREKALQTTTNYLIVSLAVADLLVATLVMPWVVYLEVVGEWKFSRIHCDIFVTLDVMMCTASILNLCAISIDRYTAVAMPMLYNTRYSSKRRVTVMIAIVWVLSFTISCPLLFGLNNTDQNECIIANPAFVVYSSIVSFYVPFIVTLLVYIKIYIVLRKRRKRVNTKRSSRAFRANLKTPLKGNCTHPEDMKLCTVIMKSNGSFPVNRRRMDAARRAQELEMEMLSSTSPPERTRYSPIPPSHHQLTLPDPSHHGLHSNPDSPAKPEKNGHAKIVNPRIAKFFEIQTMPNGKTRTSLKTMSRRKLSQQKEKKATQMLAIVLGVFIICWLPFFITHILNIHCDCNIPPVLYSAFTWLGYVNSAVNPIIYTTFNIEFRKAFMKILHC
# assay_remarks: Functional D2 receptor [35S]GTPγS assay (antagonist mode vs dopamine; basal for agonism);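 also: [35S]GTPγS binding counted by scintillation after 60 min at 30 °C, nonspecific binding defined with 100 µM unlabeled GTPγS, inhibition curves fitted by one-site nonlinear regression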
# Assay type: biochemical
# condition_summary: against 40 µM dopamine, rat striatal homogenate; read-out: D2 receptor antagonistic activity pIC50 (M ± SEM) (converted)
assay_endpoint: IC50 (µM)

| molecule | observed |
| --- | --- |
| COc1ccccc1N1CCN(CCCNC(=O)C2CC3C=CC2C3)CC1 (single isomer, unassigned) [Norbo-6] | 60.3 |
| O=C(NCCCN1CCN(c2ccc(F)cc2)CC1)C1CC2C=CC1C2 (stereo not shown) | 60.3 |
| COc1ccccc1N1CCN(CCCNC(=O)C2CC3C=CC2C3)CC1 (single isomer, unassigned) [Norbo-5] | 33.9 |
| O=C(NCCCN1CCN(c2cccc(C(F)(F)F)c2)CC1)C1CC2C=CC1C2 (stereo not shown) | 56.2 |
| O=C(NCCCN1CCN(c2ccc(Cl)cc2)CC1)C1CC2C=CC1C2 (stereo not shown) [Norbo-11] | 31.6 |
| O=C(NCCCN1CCN(c2ccc(Cl)cc2)CC1)C1CC2C=CC1C2 (stereo not shown) [Norbo-12] | 102 |
| O=C(NCCCN1CCN(c2ccccc2Cl)CC1)C1CC2C=CC1C2 (stereo not shown) | 20.4 |

====

# tested_system: 5-HT1A receptor (Rattus norvegicus, UniProt P19327)
# Construct: 15 μg/mL of hippocampus homogenate was incubated in triplicate with 0.8 nM; from tissue; host or cells: rat hippocampus homogenate
# Sequence (P19327 whole entry): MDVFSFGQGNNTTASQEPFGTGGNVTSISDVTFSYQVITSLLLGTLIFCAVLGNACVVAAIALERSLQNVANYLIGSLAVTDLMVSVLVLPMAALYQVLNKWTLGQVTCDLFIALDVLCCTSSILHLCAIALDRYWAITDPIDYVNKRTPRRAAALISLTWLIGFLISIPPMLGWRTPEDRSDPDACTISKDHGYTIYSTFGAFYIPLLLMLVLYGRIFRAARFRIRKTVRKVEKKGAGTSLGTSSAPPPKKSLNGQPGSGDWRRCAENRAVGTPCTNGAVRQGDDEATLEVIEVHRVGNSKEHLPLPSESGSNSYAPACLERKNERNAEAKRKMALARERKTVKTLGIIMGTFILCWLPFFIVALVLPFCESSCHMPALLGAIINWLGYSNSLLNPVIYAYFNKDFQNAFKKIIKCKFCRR
# assay_remarks: Functional 5-HT1A receptor [35S]GTPγS assay (agonist mode);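 also: male Sprague-Dawley rat hippocampal membranes incubated 90 min at 37 °C, bound label counted by scintillation after filtration, non-specific binding defined with 100 µM unlabeled GTPγS, one-site curve fit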
# Type: biochemical
# condition_summary: [35S]GTPγS, rat hippocampus homogenate; read-out: 5-HT1A Receptor G-Protein Stimulation EC50 (95% CI)
pEC50: −log10 of the molar value.
Answer Not fulfilled if pEC50 is under 6, and Fulfilled if it is 6 or more.

| molecule | assigned_class |
| --- | --- |
| O=C(NCCCN1CCN(c2ncccn2)CC1)C1CC2C=CC1C2 (centres unmarked) [Norbo-23] | Not fulfilled |
| COc1ccc(N2CCN(CCCNC(=O)C3CC4C=CC3C4)CC2)cc1 (centres unmarked) [Norbo-7] | Fulfilled |
| O=C(NCCCN1CCN(c2ccc(F)cc2)CC1)C1CC2C=CC1C2 (centres unmarked) [Norbo-18] | Not fulfilled |
| O=C(NCCCN1CCN(c2ccccc2)CC1)C1CC2C=CC1C2 (centres unmarked) [Norbo-2] | Not fulfilled |
| O=C(NCCCN1CCN(Cc2ccc3c(c2)OCO3)CC1)C1CC2C=CC1C2 (centres unmarked) [Norbo-25] | Not fulfilled |
| O=C(NCCCN1CCN(Cc2ccc3c(c2)OCO3)CC1)C1CC2C=CC1C2 (centres unmarked) [Norbo-26] | Not fulfilled |
| O=C(NCCCN1CCN(c2ncccn2)CC1)C1CC2C=CC1C2 (centres unmarked) [Norbo-24] | Not fulfilled |
| O=C(NCCCN1CCN(c2ccccn2)CC1)C1CC2C=CC1C2 (centres unmarked) [Norbo-21] | Fulfilled |
| Cc1cccc(N2CCN(CCCNC(=O)C3CC4C=CC3C4)CC2)c1C (centres unmarked) [Norbo-3] | Fulfilled |
| O=C(NCCCN1CCN(c2ccc(Cl)cc2)CC1)C1CC2C=CC1C2 (centres unmarked) | Not fulfilled |
| Cc1cccc(N2CCN(CCCNC(=O)C3CC4C=CC3C4)CC2)c1C (centres unmarked) [Norbo-4] | Fulfilled |
| O=C(NCCCN1CCN(c2ccc(F)cc2)CC1)C1CC2C=CC1C2 (centres unmarked) [Norbo-17] | Fulfilled |
| COc1ccccc1N1CCN(CCCNC(=O)C2CC3C=CC2C3)CC1 (single isomer, unassigned) | Not fulfilled |
| O=C(NCCCN1CCN(c2ccccc2Cl)CC1)C1CC2C=CC1C2 (centres unmarked) [Norbo-10] | Fulfilled |
| O=C(NCCCN1CCN(c2ccccc2Cl)CC1)C1CC2C=CC1C2 (centres unmarked) [Norbo-9] | Fulfilled |
| COc1ccc(N2CCN(CCCNC(=O)C3CC4C=CC3C4)CC2)cc1 (centres unmarked) [Norbo-8] | Fulfilled |

====

# tested_system: human 5-HT2C receptor (Homo sapiens, UniProt P28335)
# Sequence (P28335 33-458): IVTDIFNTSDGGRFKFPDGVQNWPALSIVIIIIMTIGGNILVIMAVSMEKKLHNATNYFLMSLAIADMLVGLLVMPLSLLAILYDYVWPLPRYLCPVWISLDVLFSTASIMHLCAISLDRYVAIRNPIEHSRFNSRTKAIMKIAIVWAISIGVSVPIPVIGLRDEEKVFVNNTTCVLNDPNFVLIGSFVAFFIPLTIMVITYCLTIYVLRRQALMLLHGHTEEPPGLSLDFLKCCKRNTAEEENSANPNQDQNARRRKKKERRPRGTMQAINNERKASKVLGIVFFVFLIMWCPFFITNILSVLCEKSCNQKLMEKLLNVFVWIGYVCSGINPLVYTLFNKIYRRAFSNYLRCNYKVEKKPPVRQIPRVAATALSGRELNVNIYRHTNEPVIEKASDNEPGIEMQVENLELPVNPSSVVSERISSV
# assay_remarks: 5-HT2C competition binding assay ([3H]mesulergine, transfected cell membranes)
# condition_summary: [3H]mesulergine, human 5-HT2C membranes; ± SEM; read-out: 5-HT2C pKi (converted)
Measured Ki, listed per entry.
assay_endpoint: Ki

| compound | tested_system | observed |
| --- | --- | --- |
| O=C(NCCCN1CCN(c2ccccc2Cl)CC1)C1CC2C=CC1C2 (stereo not drawn) | human 5-HT2C receptor (Homo sapiens, UniProt P28335) | 13.5 nM |
| O=C(NCCCN1CCN(c2ncccn2)CC1)C1CC2C=CC1C2 (stereo not drawn) | human 5-HT2C receptor (Homo sapiens, UniProt P28335) | 214 nM |
| O=C(NCCCN1CCN(c2ccc(F)cc2)CC1)C1CC2C=CC1C2 (stereo not drawn) | human 5-HT2C receptor (Homo sapiens, UniProt P28335) | 2400 nM |
| O=C(NCCCN1CCN(Cc2ccc3c(c2)OCO3)CC1)C1CC2C=CC1C2 (stereo not drawn) | human 5-HT2C receptor (Homo sapiens, UniProt P28335) | 2290 nM |
| O=C(NCCCN1CCN(c2ccccc2F)CC1)C1CC2C=CC1C2 (stereo not drawn) | human 5-HT2C receptor (Homo sapiens, UniProt P28335) | 31.6 nM |
| O=C(NCCCN1CCN(c2ccc(Cl)cc2)CC1)C1CC2C=CC1C2 (stereo not drawn) | human 5-HT2C receptor (Homo sapiens, UniProt P28335) | 30.9 nM |

====

# tested_system: 5-HT2A receptor (Rattus norvegicus)
# Sequence (P14842 whole entry): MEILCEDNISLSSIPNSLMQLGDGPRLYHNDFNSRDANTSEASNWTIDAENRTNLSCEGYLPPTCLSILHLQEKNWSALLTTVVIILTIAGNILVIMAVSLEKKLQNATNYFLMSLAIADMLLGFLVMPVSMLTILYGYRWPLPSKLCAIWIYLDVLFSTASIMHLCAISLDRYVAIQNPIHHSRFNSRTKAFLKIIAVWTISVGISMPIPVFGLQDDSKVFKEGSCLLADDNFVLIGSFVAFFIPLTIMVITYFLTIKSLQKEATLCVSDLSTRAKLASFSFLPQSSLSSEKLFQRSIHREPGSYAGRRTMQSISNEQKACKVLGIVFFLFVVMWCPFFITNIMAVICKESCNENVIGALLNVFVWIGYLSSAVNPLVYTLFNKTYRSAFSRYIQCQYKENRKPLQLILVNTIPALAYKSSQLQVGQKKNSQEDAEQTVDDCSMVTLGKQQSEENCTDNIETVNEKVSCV
# assay_remarks: 5-HT2A competition binding assay ([3H]ketanserin, frontal cortex homogenates)
# condition_summary: read-out: 5-HT2A Ki (95% CI)
assay_endpoint: log10 Ki (log10 of the value in nM)

| compound | log10 Ki |
| --- | --- |
| O=C(NCCCN1CCN(c2ccccc2)CC1)C1CC2C=CC1C2 (centres unmarked) [Norbo-1] | 1.87 |
| O=C(NCCCN1CCN(C(=O)c2ccco2)CC1)C1CC2C=CC1C2 (centres unmarked) [Norbo-27] | 3.05 |
| O=C(NCCCN1CCN(c2ccc(Cl)c(Cl)c2)CC1)C1CC2C=CC1C2 (centres unmarked) [Norbo-14] | 1.25 |
| O=C(NCCCN1CCN(c2ccccc2F)CC1)C1CC2C=CC1C2 (centres unmarked) [Norbo-16] | 1.87 |
| Cc1cccc(N2CCN(CCCNC(=O)C3CC4C=CC3C4)CC2)c1C (centres unmarked) [Norbo-3] | 1.37 |

====

# tested_system: human 5-HT2C receptor (Homo sapiens, UniProt P28335)
# assay_remarks: 5-HT2C competition binding assay ([3H]mesulergine, transfected cell membranes)
# condition_summary: [3H]mesulergine, human 5-HT2C membranes; read-out: 5-HT2C Ki (95% CI)
In plain terms, low Ki, meaning strictly below 0.2 µM, gives satisfied, and everything else gives not satisfied.

| compound | tested_system | assigned_class |
| --- | --- | --- |
| O=C(NCCCN1CCN(c2ccccc2F)CC1)C1CC2C=CC1C2 (stereo not drawn) [Norbo-16] | human 5-HT2C receptor (Homo sapiens, UniProt P28335) | not satisfied |
| COc1ccc(N2CCN(CCCNC(=O)C3CC4C=CC3C4)CC2)cc1 (stereo not drawn) [Norbo-7] | human 5-HT2C receptor (Homo sapiens, UniProt P28335) | satisfied |
| COc1ccccc1N1CCN(CCCNC(=O)C2CC3C=CC2C3)CC1 (single isomer, unassigned) [Norbo-6] | human 5-HT2C receptor (Homo sapiens, UniProt P28335) | not satisfied |
| O=C(NCCCN1CCN(c2ccc(Cl)cc2)CC1)C1CC2C=CC1C2 (stereo not drawn) [Norbo-11] | human 5-HT2C receptor (Homo sapiens, UniProt P28335) | satisfied |
| O=C(NCCCN1CCN(c2ccccc2Cl)CC1)C1CC2C=CC1C2 (stereo not drawn) [Norbo-9] | human 5-HT2C receptor (Homo sapiens, UniProt P28335) | not satisfied |
| O=C(NCCCN1CCN(c2ccc(F)cc2)CC1)C1CC2C=CC1C2 (stereo not drawn) [Norbo-17] | human 5-HT2C receptor (Homo sapiens, UniProt P28335) | not satisfied |
| O=C(NCCCN1CCN(c2cccc(C(F)(F)F)c2)CC1)C1CC2C=CC1C2 (stereo not drawn) [Norbo-19] | human 5-HT2C receptor (Homo sapiens, UniProt P28335) | satisfied |
| O=C(NCCCN1CCN(C(=O)c2ccco2)CC1)C1CC2C=CC1C2 (stereo not drawn) [Norbo-28] | human 5-HT2C receptor (Homo sapiens, UniProt P28335) | not satisfied |
| O=C(NCCCN1CCN(c2ncccn2)CC1)C1CC2C=CC1C2 (stereo not drawn) [Norbo-24] | human 5-HT2C receptor (Homo sapiens, UniProt P28335) | not satisfied |
| O=C(NCCCN1CCN(c2ccccn2)CC1)C1CC2C=CC1C2 (stereo not drawn) [Norbo-21] | human 5-HT2C receptor (Homo sapiens, UniProt P28335) | not satisfied |
| O=C(NCCCN1CCN(c2cccc(C(F)(F)F)c2)CC1)C1CC2C=CC1C2 (stereo not drawn) [Norbo-20] | human 5-HT2C receptor (Homo sapiens, UniProt P28335) | not satisfied |
| O=C(NCCCN1CCN(c2ccccc2F)CC1)C1CC2C=CC1C2 (stereo not drawn) [Norbo-15] | human 5-HT2C receptor (Homo sapiens, UniProt P28335) | satisfied |
| O=C(NCCCN1CCN(Cc2ccc3c(c2)OCO3)CC1)C1CC2C=CC1C2 (stereo not drawn) [Norbo-25] | human 5-HT2C receptor (Homo sapiens, UniProt P28335) | not satisfied |
| COc1ccc(N2CCN(CCCNC(=O)C3CC4C=CC3C4)CC2)cc1 (stereo not drawn) [Norbo-8] | human 5-HT2C receptor (Homo sapiens, UniProt P28335) | not satisfied |
| O=C(NCCCN1CCN(C(=O)c2ccco2)CC1)C1CC2C=CC1C2 (stereo not drawn) [Norbo-27] | human 5-HT2C receptor (Homo sapiens, UniProt P28335) | not satisfied |
| O=C(NCCCN1CCN(c2ccc(F)cc2)CC1)C1CC2C=CC1C2 (stereo not drawn) [Norbo-18] | human 5-HT2C receptor (Homo sapiens, UniProt P28335) | not satisfied |
| Cc1cccc(N2CCN(CCCNC(=O)C3CC4C=CC3C4)CC2)c1C (stereo not drawn) [Norbo-3] | human 5-HT2C receptor (Homo sapiens, UniProt P28335) | not satisfied |
| O=C(NCCCN1CCN(c2ccccc2)CC1)C1CC2C=CC1C2 (stereo not drawn) [Norbo-1] | human 5-HT2C receptor (Homo sapiens, UniProt P28335) | not satisfied |
